Test system: LXFL 529
Assay: NCI tumour cell line growth inhibition, 48 h
Activity calls are given as the source filed them. Rule as the data show it: active = GI50 up to about 1.1 µM and inactive = higher.
Entries and their GI50
measured_property: GI50

[
  {
    "molecule": "Cc1ccccc1N1C(=O)/C(=C/c2ccc(N(CCC#N)CCC#N)cc2)N=C1c1cc([N+](=O)[O-])ccc1Cl",
    "measured_property": "GI50",
    "result": "96.8 µM (inactive)"
  },
  {
    "molecule": "CC(=O)C1=CCC2c3[nH]c4ccccc4c3CCN2C1 (stereo not given)",
    "measured_property": "GI50",
    "result": "66.8 µM (inactive)"
  },
  {
    "molecule": "Cc1cc2ncn(-c3nc4ccccc4nc3C(C#N)S(C)(=O)=O)c2cc1C (stereo not given)",
    "measured_property": "GI50",
    "result": "> 100 µM (inactive)"
  },
  {
    "molecule": "CCN(C1=CC(=O)NC2CCCCN12)c1ccccc1 (stereo not given)",
    "measured_property": "GI50",
    "result": "> 100 µM (inactive)"
  },
  {
    "molecule": "O=C(O)CN(c1ccccc1)S(=O)(=O)c1ccc(Cl)cc1",
    "measured_property": "GI50",
    "result": "> 100 µM (inactive)"
  },
  {
    "molecule": "Cn1nc(-c2ccccc2)c(C(=O)/C=C/c2ccccc2)c(N2CCOCC2)c1=O",
    "measured_property": "GI50",
    "result": "16 µM (inactive)"
  },
  {
    "molecule": "CCOC(=O)N1c2c(ccn2C)-c2ccn(C)c2N1C(=O)OCC",
    "measured_property": "GI50",
    "result": "17.2 µM (inactive)"
  },
  {
    "molecule": "COC(=O)[C@@]12CC(C(C)C)[C@H]3CC(C(=O)C=C1OC)[C@H]32 (stereo not given in full)",
    "measured_property": "GI50",
    "result": "> 100 µM (inactive)"
  },
  {
    "molecule": "O=[N+]([O-])c1cc(Cl)ccc1OCc1ccccc1",
    "measured_property": "GI50",
    "result": "41.6 µM (inactive)"
  },
  {
    "molecule": "CCN1C(=O)C/C(=C\\C(C)=O)Nc2ccccc21",
    "measured_property": "GI50",
    "result": "> 100 µM (inactive)"
  },
  {
    "molecule": "c1ccc(C2OCCO2)c(OCCOc2cc(OCCOc3ccccc3C3OCCO3)c(OCCOc3ccccc3C3OCCO3)cc2OCCOc2ccccc2C2OCCO2)c1",
    "measured_property": "GI50",
    "result": "29.2 µM (inactive)"
  },
  {
    "molecule": "OCC(O)C(O)C(O)C1SC(c2ccccc2)=NN1c1ccccc1 (stereo not given)",
    "measured_property": "GI50",
    "result": "> 95.5 µM (inactive)"
  },
  {
    "molecule": "COc1cc(/C=N/N=C(\\N)NO)c([N+](=O)[O-])cc1OC",
    "measured_property": "GI50",
    "result": "27 µM (inactive)"
  },
  {
    "molecule": "CCCCCCCCC(C)CCCCCCCCC(=O)OCC(COP(=O)([O-])OCC[N+](C)(C)C)OC(=O)CCCCCCCCC(C)CCCCCCCC (stereo not given)",
    "measured_property": "GI50",
    "result": "> 100 µM (inactive)"
  },
  {
    "molecule": "COc1ccc2[nH]c(=O)cc(C)c2c1[N+](=O)[O-]",
    "measured_property": "GI50",
    "result": "> 100 µM (inactive)"
  },
  {
    "molecule": "COC(=O)C1(C(=O)OC)CC2c3c(c4ccccc4n3C)CC(C1=O)N2Cc1ccccc1 (stereo not given)",
    "measured_property": "GI50",
    "result": "> 100 µM (inactive)"
  },
  {
    "molecule": "CC12CCCCC1(C)C2Sc1ccccc1 (stereo not given)",
    "measured_property": "GI50",
    "result": "63.8 µM (inactive)"
  },
  {
    "molecule": "Oc1ccccc1/C=N/c1ccccc1/N=C/c1ccccc1O",
    "measured_property": "GI50",
    "result": "31.7 µM (inactive)"
  },
  {
    "molecule": "COC(=O)C(C(=O)C(=O)Nc1nc2ccc(OC)cc2s1)c1cnc2ccccc2n1 (stereo not given)",
    "measured_property": "GI50",
    "result": "> 100 µM (inactive)"
  },
  {
    "molecule": "Cc1ccc(C(=O)c2nnc(C(=O)c3ccc(C)cc3)nn2)cc1",
    "measured_property": "GI50",
    "result": "53.2 µM (inactive)"
  }
]

---

Listing: GI50 of selected compounds
Tested on: ACHN
Experiment: NCI tumour cell line growth inhibition, 48 h
Where a name gives a salt, the structure may show the parent alone. The source made the active and inactive calls. No stated cut-off is given here; in the data, active = GI50 up to about 1.1 µM and inactive = higher. Where a SMILES comes first, the peptide text is derived from it. [ ]: non-standard residue; d: D form. Phe(4-NO2) = N[CH](Cc1ccc([N+](=O)[O-])cc1)C(=O)O

[
  {
    "compound": "O=C(CSc1nnc(-c2ccc(/N=C\\c3ccc(Cl)cc3)cc2)o1)Nc1cccc(Cl)c1",
    "GI50": "> 100 µM (inactive)"
  },
  {
    "compound": "Cc1cc2ncn(-c3nc4ccccc4nc3C(C#N)S(C)(=O)=O)c2cc1C (centres undefined)",
    "GI50": "> 100 µM (inactive)"
  },
  {
    "compound": "COc1cc2c(cc1OCCCOc1cc3c(cc1OC)C(=O)N1CCC[C@H]1C(=O)N3)N=C[C@@H]1CCCN1C2=O",
    "GI50": "17.1 µM (inactive)"
  },
  {
    "compound": "CC(C)(C)C1=C(Br)C(OC(=O)C(F)(F)F)(C(C)(C)C)OP1(=O)c1ccccc1 (centres undefined)",
    "GI50": "32.7 µM (inactive)"
  },
  {
    "compound": "O=c1c2c3c(sc2nc2n1N=CN(c1ccccc1)C2)CCCC3",
    "GI50": "> 100 µM (inactive)"
  },
  {
    "compound": "CC(NC(=O)C(Cc1ccc([N+](=O)[O-])cc1)NC(=O)C(N)CCCCN)C(=O)NC(Cc1ccc([N+](=O)[O-])cc1)C(N)=O (centres undefined) (H-K[Phe(4-NO2)]A[Phe(4-NO2)]-NH2; configuration not given here)",
    "GI50": "32.8 µM (inactive)"
  },
  {
    "compound": "CC(=O)Nc1ccccc1C=C1c2ccccc2-c2ccccc21",
    "GI50": "42.7 µM (inactive)"
  },
  {
    "compound": "O=C1NNC2NC(=O)C3(NN2C1=O)c1ccccc1-c1ccccc13 (centres undefined)",
    "GI50": "> 100 µM (inactive)"
  },
  {
    "compound": "Cc1cc(S(=O)(=O)Nc2nnc3cnc4ccccc4n23)c(S)cc1Cl",
    "GI50": "6.73 µM (inactive)"
  },
  {
    "compound": "CC1(C)C2CC(O)C1(C)CC2=O (centres undefined)",
    "GI50": "> 100 µM (inactive)"
  },
  {
    "compound": "O=C1/C(=C\\c2ccccc2)CN(C(=O)CCN2CCCCC2)C/C1=C/c1ccccc1",
    "GI50": "1.95 µM (inactive)"
  },
  {
    "compound": "O=C1c2c(O)ccc(O)c2C(=O)c2c(NCCNCCO)ccc(NCCNCCO)c21 [MITOXANTRONE HYDROCHLORIDE]",
    "GI50": "0.0115 µM (active)"
  },
  {
    "compound": "Cc1cc(C)cc(Nc2nnc3n2S(=O)(=O)c2cc(C#N)c(Cl)cc2S3)c1",
    "GI50": "3.08 µM (inactive)"
  },
  {
    "compound": "Cc1ccc(C(=O)c2nnc(C(=O)c3ccc(C)cc3)nn2)cc1",
    "GI50": "76 µM (inactive)"
  },
  {
    "compound": "CN(C)CCOc1ccc2[nH]c(C(=O)N3CC(CCl)c4ccc(N)cc43)cc2c1 (centres undefined)",
    "GI50": "0.0281 µM (active)"
  },
  {
    "compound": "COC(=O)c1ccccc1C1=C([N+](=O)[O-])C(c2ccccc2)C(C#N)=C(N)O1 (centres undefined)",
    "GI50": "54.7 µM (inactive)"
  },
  {
    "compound": "Cc1nc2c(nc1C)C(=O)c1ccccc1C2=O",
    "GI50": "10.4 µM (inactive)"
  },
  {
    "compound": "C1=N\\c2ccc(cc2)-c2ccc(cc2)/N=C\\c2ccccc2OCc2cccc(n2)COc2ccccc2/1",
    "GI50": "21.3 µM (inactive)"
  },
  {
    "compound": "C=C1CC(COc2cc(=O)oc3ccccc23)(c2ccccc2)OC1=O (centres undefined)",
    "GI50": "2.5 µM (inactive)"
  }
]
